inhibition at 20 µM reference
# TARGET OR SYSTEM: Rac-1 (Homo sapiens)
# EXPERIMENT NOTES: Ras GTP binding domain inhibition assay (Cy3-GTP/Cy5-GTP competition)
# PROTOCOL CONDITIONS: with SOS, read-out: Rac-1 + SOS: % inh.

# example entries with known answers
1. COC1CCN(c2nc(-c3nccn3C)nc3sc(-c4ccccc4Cl)c(-c4cscn4)c23)C1 (centres unmarked) [drawing 984]
76 to 100%
2. COC1CCN(c2nc(-c3nccn3C)nc3sc(-c4cccnc4)c(-c4ccccc4)c23)C1 (centres unmarked) [drawing 979]
51 to 75%

Query: Need inhibition at 20 µM of COCC(C)Nc1nc(-c2nccn2C)nc2sc(-c3cccc(OC)c3)c(-c3cscn3)c12 (centres unmarked) [drawing 990] , thanks.
Reply: 1 to 25%

Query: Another compound to look at: COc1cccc(Oc2nc(-c3ccccn3)nc(O)c2OC)c1 [drawing 936]
Reply: 76 to 100%

Query: What do you have for COCCn1ccnc1-c1nc(O)c2scc(-c3ccccn3)c2n1 [drawing 987] ?
Reply: 76 to 100%

====

# TARGET OR SYSTEM: K-Ras (G12C) (Homo sapiens, UniProt P01116, G12C)
# Sequence (P01116 1-188 isoform P01116-2 G12C): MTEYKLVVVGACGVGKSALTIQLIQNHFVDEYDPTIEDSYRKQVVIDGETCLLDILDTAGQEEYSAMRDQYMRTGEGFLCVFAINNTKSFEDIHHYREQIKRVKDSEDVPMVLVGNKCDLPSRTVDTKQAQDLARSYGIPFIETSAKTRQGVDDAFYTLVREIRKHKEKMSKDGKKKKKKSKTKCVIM
# EXPERIMENT NOTES: Scintillation Proximity Assay (SPA), GTP affinity
# Format: binding
VALUE KIND: Kd (nM)
Hi! Could you send only the number? It should be in nM, unit omitted.

Query: For the record "Nc1nc2c(ncn2[C@@H]2O[C@H](COP(=O)(O)OP(=O)(O)OP(=O)(O)O)[C@@H](O)[C@H]2O)c(=O)[nH]1" , what value of Kd is listed for K-Ras (G12C) (Homo sapiens, UniProt P01116, G12C)?
Reply: 258

====

# Test system: KRas Q61H mutant
# EXPERIMENT NOTES: Ras GTP binding domain inhibition assay (Cy3-GTP/Cy5-GTP competition)
# Set-up: species or system human
# PROTOCOL CONDITIONS: 20 μM; with SOS
VALUE KIND: KRas Q61H mutant + SOS: % inh.

Below: 4 compounds and their reported KRas Q61H mutant + SOS: % inh..
1. COCC(C)Nc1nc(-c2nccn2C)nc2sc(-c3cccc(OC)c3)c(-c3cscn3)c12 (centres unmarked) [drawing 855]
D (76-100% inhibition)
2. COc1ccc(Oc2nc(-c3ccccn3)nc(O)c2OC)cc1 [drawing 815]
C (51-75% inhibition)
3. COCCNc1nc(-c2nccn2C)nc2sc(-c3cc(OC)ccc3Cl)c(-c3ccccc3)c12 [drawing 871]
A (1-25% inhibition)
4. Cn1ccnc1-c1nc(O)c(O)c(C(=O)NC2CCC2)n1 [drawing 825]
C (51-75% inhibition)

Query: GET /values?readout=KRas Q61H mutant + SOS: % inh.&item= Cn1ccc(-c2sc3nc(-c4nccn4C)nc(NC4CCOCC4)c3c2-c2ccccc2)n1 [drawing 862]
Reply: B (26-50% inhibition)

Query: // repeat for CN(Cc1ccccc1)C(=O)c1nc(-c2ccccn2)nc(O)c1O [drawing 799] and report
Reply: B (26-50% inhibition)

Query: Same question for COCCCN(C)c1nc(-c2nccn2C)nc2sc(-c3ccn(C)n3)c(-c3ccccc3)c12 [drawing 865] please.
Reply: B (26-50% inhibition)

Query: Next compound up: COCCCNc1nc(-c2nccn2C)nc2sc(-c3ccn(C)n3)c(-c3ccc(OC)cc3)c12 [drawing 870]
Reply: A (1-25% inhibition)

Query: What do you get for COc1nc(-c2ccccn2)nc(Nc2cnn(C)c2)c1OC [drawing 794] ?
Reply: A (1-25% inhibition)

Query: One more compound: Cn1ccnc1-c1nc(O)c(O)c(C(=O)NC2CCCC2)n1 [drawing 827]
Reply: C (51-75% inhibition)

Query: Cool, now Cn1ccc(-c2sc3nc(-c4nccn4C)nc(N4CCC5(CCOC5)C4)c3c2-c2ccccc2)n1 (centres unmarked) [drawing 857]
Reply: B (26-50% inhibition)

Query: Try the compound COCCNc1nc(-c2nccn2C)nc2sc(-c3cccc(OC)c3Cl)c(-c3ccc(OC)cc3)c12 [drawing 874]
Reply: D (76-100% inhibition)

Query: # repeat for O=C(NC1CCC1)c1nc(-c2ccccn2)nc(O)c1O [drawing 809]
Reply: B (26-50% inhibition)

Query: Param item: O=C(NC1CCCC1)c1nc(-c2ccccn2)nc(O)c1O [drawing 812]
Reply: B (26-50% inhibition)

Query: Follow-up item: Oc1nc(-c2nccn2Cc2ccccn2)nc2c(-c3ccccn3)csc12 [drawing 851]
Reply: D (76-100% inhibition)

Query: And COCCNc1nc(-c2nccn2C)nc2sc(-c3ccccc3Cl)c(-c3ccc(OC)cc3)c12 [drawing 876] ?
Reply: D (76-100% inhibition)

Query: And the next one, COCCn1cc(-c2sc3nc(-c4nccn4C)nc(N4CCC(OC)C4)c3c2-c2ccccc2)cn1.Cl (centres unmarked) ?
Reply: C (51-75% inhibition)

Query: Now the same for COc1cc(-c2sc3nc(-c4nccn4C)nc(N4CCC(OC)C4)c3c2-c2ccccc2)ccn1.Cl (centres unmarked)
Reply: C (51-75% inhibition)
